Kindly supply the reported cell viability (kinase inhibitor library screening) values for the records listed here.
Tested on: 501Mel-GP cells (Dabrafenib-resistant)
Test: Kinase inhibitor library screening, PrestoBlue cell viability, 1 or 10 μM, 72 h
Conditions: 501Mel GP, 1μΜ, 72 h
Numbers only, in %.

>>> reported_measurement("Cc1cn(-c2cc(NC(=O)c3ccc(C)c(Nc4nccc(-c5cccnc5)n4)c3)cc(C(F)(F)F)c2)cn1")
99.9
>>> reported_measurement("O=c1cc(-c2cccc3c2Sc2ccccc2S3)oc(N2CCOCC2)c1")
98.9
>>> reported_measurement("Cn1cc(-c2ccc3nnc(C(F)(F)c4ccc5ncccc5c4)n3n2)cn1")
86.8

Shifting focus to the compound that follows.
cell viability (kinase inhibitor library screening) for `COc1cc(Nc2ncc3c(n2)-c2ccc(Cl)cc2C(c2c(F)cccc2OC)=NC3)ccc1C(=O)O` is 82.8

All figures here come from paper PMC6364417.
